Just for reference, patent US8962880B2 is where these values come from.

Assay: physchem
Conditions: water
PARAMETER_MEASURED: solubility

Request: Look up solubility for this compound: C[C@H]1[C@H](C)CC[C@]2(C(=O)O)CC[C@]3(C)C(=CC[C@@H]4[C@@]5(C)C[C@@H](O)[C@H](O)[C@@](C)(CO)[C@@H]5CC[C@]43C)[C@H]12 [asiatic acid]
Result: 30 µg/mL

---

Assay: physchem
Conditions: organic solvent or mixture
PARAMETER_MEASURED: solubility (mg/mL)
# value in mg/mL; strip the unit string

Request: Look up solubility for this molecule: C[C@H]1[C@H](C)CC[C@]2(C(=O)O)CC[C@]3(C)C(=CC[C@@H]4[C@@]5(C)C[C@@H](O)[C@H](O)[C@@](C)(CO)[C@@H]5CC[C@]43C)[C@H]12
Result: 33.1
